- targetEntity: Low Density Lipoprotein Receptor (LDLR), recombinant (UniProt P01130 22-788)
- procedureDetails: SPR; HBS + 0.05% P20
measureName: pKd
Recall that pKd is obtained by taking minus log10 of the concentration measured in molar.

query: I would be grateful if you could share the reported pKd for LASHLRKLRKRLLRSLVSQYFQTVTDYGKDLM [T-065] .
result: 6.12

query: Please report the recorded pKd for T-068 (peptide) peptide: MEDVRGRLVQYRGEVQAMLGQSTEELRVRLASHLRKLRKRLLRDADDLQKRLAVYQA .
result: 5.70

query: Query: pKd; subject: T-116 (peptide) peptide: DAWERFRALFKELADYFRLGQSTEELRVRLASHLRKLRKRLLRDADDLQKRLAVYQA
result: 5.92

query: Consider the binder T-112 (peptide) peptide: YKDFGERVERALGRQLEMLGQSTEELRVRLASHLRKLRKRLLRDADDLQKRLAVYQA and give its measured pKd.
result: 6.14

query: Fill in the blank: the reported pKd of LASHLRKLRKRLLRDGDKLQDRLAEYQARAKEAFDR [T-048] is ____.
result: 5.28

query: Entry under review: HLRKLRKRLLRDGDKLQDRLAEYQARAREAFDR [T-055] . Reported pKd?
result: 5.29

query: GET /values?readout=pKd&item= T-069 (peptide) peptide: VRGRLVQYRGEVQAMLGQSTEELRVRLASHLRKLRKRLLRDADDLQKRLAVYQA
result: 5.62

query: Looking for the measured pKd of HLRKLVKRLLRSLVSQYRQTVTDYGEDL [T-111] , can you help?
result: 5.97

query: Can you look up the measured pKd of T-118 (peptide) peptide: LVARLLKELTAAMARLGRDAEDIRGNLFQYFDEVWAMLGQSTEELRVRLASHLRKLRKRLLRDADDLQKRLAVYQA for me?
result: 5.57

query: Would you mind telling me what pKd value was observed for LASHLRKLRKRLLRDADDLQKRLAVYQAGAREGAER [T-046] ?
result: 5.45

query: // returns reported pKd for input LARHLRKLRKRLARDGDKLQDRLAEYQARAKEAFDR [T-049]
result: 5.49

query: Which pKd is listed for T-113 (peptide) peptide: WKDFGERVERALREQFEDLGQSTEELRVRLASHLRKLRKRLLRDADDLQKRLAVYQA ?
result: 5.74

query: Field request: pKd | item: HLRKLRKRLLRDGDKLQDRLAEYQARAKEAFDR [T-040]
result: 5.26

query: Field request: pKd | item: HLRKLRKRLLRDADDLQKRLAEYQARAKEAFDR [T-064]
result: 5.17

The measurements presented in this section are drawn from patent US20260115250A1.
